# experimental-protocol: Pharmacokinetics study: eye tissue distribution of melatonin/agomelatine eye drops by HPLC/MS/MS in healthy rats
# cond: rat, retina, topical, 40 µg, Concentration in the retina (molar), converted from ng/mg
readout-name: concentration at 2 h (nM)
// return numeric value only (unit: nM, not printed)

Specify concentration at 2 h for COc1ccc2cccc(CCNC(C)=O)c2c1 [agomelatine] and stop.
378

###

# experimental-protocol: in vivo
# cond: Sprague-Dawley, rat, Concentration in the retina (molar)
readout-name: concentration at 2 h

Using known records, supply concentration at 2 h for COc1ccc2[nH]cc(CCNC(C)=O)c2c1 [melatonin]
~17 nM

###

# experimental-protocol: Pharmacokinetics study: eye tissue distribution of melatonin/agomelatine eye drops by HPLC/MS/MS in healthy rats
# cond: Sprague-Dawley, rat, retina, topical, 40 µg, Concentration, pool of retinas, pool of retinas of animals 1 to 5; 3 x 40 µg eye drops, 2 h after last instillation
readout-name: concentration at 2 h (ng/g)
Just the number please, in ng/g, no unit attached.

Return the recorded concentration at 2 h value; entry: `COc1ccc2cccc(CCNC(C)=O)c2c1`
96

From: paper PMC7730513
